testName: Half life in rat at 1 mg/kg, iv and 5 mg/kg, po
Assay type: ADME, organism-based
cond: in vivo
valueType: half-life (h)
Express your answer in h, writing the number without its unit.

Request the reported half-life associated with Cc1cc(CC2CC2)cc(C)c1NC(=O)Nc1cc(-c2cccc(F)c2)ccc1C(=O)N[C@H](C(=O)O)[C@@H](C)OC(C)(C)C
2.3

====

testedSystem: Glycogen phosphorylase, liver form (Homo sapiens)
Sequence (P06737 whole entry): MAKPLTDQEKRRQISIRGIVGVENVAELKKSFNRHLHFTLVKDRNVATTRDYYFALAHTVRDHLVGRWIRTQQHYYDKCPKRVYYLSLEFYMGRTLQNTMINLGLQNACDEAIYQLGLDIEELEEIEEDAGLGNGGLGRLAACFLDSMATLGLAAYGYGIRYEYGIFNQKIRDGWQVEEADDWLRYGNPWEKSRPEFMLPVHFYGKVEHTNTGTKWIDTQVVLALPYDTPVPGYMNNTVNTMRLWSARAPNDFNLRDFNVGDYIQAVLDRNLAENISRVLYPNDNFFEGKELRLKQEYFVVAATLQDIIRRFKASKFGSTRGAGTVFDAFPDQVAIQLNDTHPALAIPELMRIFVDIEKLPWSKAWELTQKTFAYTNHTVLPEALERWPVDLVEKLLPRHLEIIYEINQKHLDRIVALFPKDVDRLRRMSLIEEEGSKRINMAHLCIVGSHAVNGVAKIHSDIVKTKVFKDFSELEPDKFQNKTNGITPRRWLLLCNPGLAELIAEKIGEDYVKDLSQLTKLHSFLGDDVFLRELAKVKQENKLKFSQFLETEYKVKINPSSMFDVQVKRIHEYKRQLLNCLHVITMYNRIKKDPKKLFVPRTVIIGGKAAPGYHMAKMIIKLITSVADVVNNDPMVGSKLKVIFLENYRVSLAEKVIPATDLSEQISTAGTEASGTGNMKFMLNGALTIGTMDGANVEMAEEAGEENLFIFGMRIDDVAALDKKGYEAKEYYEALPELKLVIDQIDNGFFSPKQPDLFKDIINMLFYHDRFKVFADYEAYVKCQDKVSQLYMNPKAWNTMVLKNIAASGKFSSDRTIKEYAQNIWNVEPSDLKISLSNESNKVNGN
testName: Inhibition of human liver glycogen phosphorylase a by coupled kinetic fluorescent intensity assay
// assign met if IC50 falls strictly below 10 nM, else not met (ties count as not met)

Take a look at these entries with their results.
substanceSmiles | testedSystem | category
Cc1cc(CC2CC2)cc(C)c1NC(=O)Nc1cc(F)ccc1C(=O)N[C@H](C(=O)O)C1CCCCC1 | Glycogen phosphorylase, liver form (Homo sapiens) | not met
CCCCc1cc(C)c(NC(=O)Nc2cc(F)ccc2C(=O)N[C@H](C(=O)O)C2CCCCC2)c(C)c1 | Glycogen phosphorylase, liver form (Homo sapiens) | not met
COc1cccc(-c2ccc(C(=O)N[C@H](C(=O)O)[C@@H](C)OC(C)(C)C)c(NC(=O)Nc3c(C)cc(C)cc3C)c2)c1 | Glycogen phosphorylase, liver form (Homo sapiens) | met

Check if IC50 falls below 10 nM for COc1ccc(-c2ccc(C(=O)N[C@H](C(=O)O)[C@@H](C)OC(C)(C)C)c(NC(=O)Nc3c(C)cc(C)cc3C)c2)cc1 .
met

Lab note: IC50 threshold 10 nM. Does this molecule come in strictly under it? Cc1cc(CC2CC2)cc(C)c1NC(=O)Nc1cc(F)ccc1C(=O)N[C@H](C(=O)O)[C@@H](C)OC(C)(C)C
met

I'd appreciate it if you could check whether CCCc1cc(C)c(NC(=O)Nc2cc(F)ccc2C(=O)N[C@H](C(=O)O)C2CCCCC2)c(C)c1 has IC50 smaller than 10 nM.
not met

IC50 under 10 nM? Item: Cc1cc(C)c(NC(=O)Nc2cc(-c3ccc(F)cc3)ccc2C(=O)N[C@H](C(=O)O)[C@@H](C)OC(C)(C)C)c(C)c1
met
